- Tested on: E. coli BW25113 ΔtolC growth inhibition, OD615
- PROCEDURE_DETAILS: growth inhibitors of E. coli tolC mutant, dose response, strain BW25113 ΔtolC::kan (AID 617);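 also: growth read after 20 h at 37 °C with compound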
PARAMETER_MEASURED: IC50

| COMPOUND | PARAMETER_MEASURED | OBSERVED_MEASUREMENT |
| --- | --- | --- |
| O=C(Nc1sc2c(c1C(=O)O)CCC2)c1cccs1 | IC50 | 13.8 µM |
| CCOC(=O)C1=C(N)OC2=C(C(=O)CCC2)C12C(=O)N1c3c(ccc(C)c32)C(C)=CC1(C)C (centres undefined) | IC50 | 13.8 µM |
| CN(c1ccccc1C(=O)Nc1ccc(S(=O)(=O)N2CCCCC2)cc1)S(C)(=O)=O | IC50 | 7.39 µM |

Let us examine a further case.
# input I would be grateful if you could share the reported IC50 for Cc1ccc2oc(C(=O)NCc3ccc4c(c3)OCO4)c(C)c2c1 .
# output 11.1 µM
